System: Adrenergic receptor alpha (Rattus norvegicus)
Experiment: The selectivity was evaluated against alpha 1 and alpha 2 adrenoceptors
Please provide measured Selectivity for the entries that follow.

(Q) Which value of Selectivity has been reported for "Cl.Oc1ccc(CCN2C=NCC2)cc1O" in the records?
(A) 0.7

(Q) // lookup Selectivity for "Cl.Oc1ccc(CN2C=NCC2)cc1O"
(A) 2.2

(Q) I'd like to know its Selectivity. The compound in question is "Cl.Cl.NCCNCCc1ccc(O)c(O)c1"
(A) 0.3

(Q) If you can, please state the reported Selectivity value of "Oc1ccc(CC2=NCCN2)cc1O" .
(A) 2

(Q) Fill in the blank: the reported Selectivity of "Cl.Cl.NCCNCc1ccc(O)c(O)c1" is ____.
(A) 1.3
